Please respond with reported IC50 for every item in the list.
- experimental_system: MCT1 (Homo sapiens (Human))
- protocol_summary: Assay 4: MCT1-mediated lactate transport in BT20 breast cancer cells
- Format: cell-based
- details: Table 27
Numbers only, in nM.

Before answering, review these 3 worked examples.
| structure | IC50, nM |
| --- | --- |
| CCOc1cccc(F)c1Cn1nc(COC(C)(C)C(=O)O)cc1-c1cc(OC)cc(OC)c1 | 43000 |
| CC(C)(OCc1cc(-c2cccc(OC3CC3)c2)n(-c2ccccc2N2CCOCC2)n1)C(=O)O | 70000 |
| COc1cccc(-c2cc(COC(C)(C)C(=O)O)nn2-c2ccccc2OC)c1 | 65000 |

Okay, next one:
Request: Assign IC50 to the following record: CCOc1cc(OCC)cc(-c2cc(COC(C)(C)C(=O)O)nn2Cc2ccccc2Cl)c1
Result: 12000

* * *

- protocol_summary: Metabolic stability in mouse liver microsomes (in vitro t1/2)
- Assay type: in vitro ADME
- details: mouse liver microsomes 0.5 mg/mL, 2 μM compound; read-out: Mouse microsome t1/2, min
- Experimental: The following are assays that may be used to evaluate the metabolic stability of compounds of Formula (I) in human, rat, or mouse microsomes. The assays follow a common procedure recited below. 1. […] Peak areas were determined from extracted ion chromatograms. The slope value, k, was determined by linear regression of the natural logarithm of the remaining percentage of the parent drug vs. incubation time curve. […]
measurement_name: half-life at 2 µM (h)
Answers are plain numbers, in h.

Before answering, review these 2 worked examples.
| molecule | result_unit | assay_value |
| --- | --- | --- |
| CCOc1ccccc1Cn1nc(COC(C)(C)C(=O)O)cc1-c1cccc(OC2CC2)c1 [Example 201] | h | 1.38 |
| COc1cccc(-c2c(C)c(COC(C)(C)C(=O)O)nn2Cc2ccccc2Cl)c1 [Example 54] | h | 12.7 |

Batch of 2 molecules: report half-life at 2 µM for each.
1. CCn1ncc2ccc(-c3cc(COC(C)(C)C(=O)O)nn3-c3ccccc3N3CCCC3)cc21 [Example 229]
2. CCOc1ccccc1Cn1nc(COC(C)(C)C(=O)O)cc1-c1cc(Cl)cc(OC)c1 [Example 196]

Result:
3.27
0.617

* * *

- protocol_summary: Metabolic stability in rat liver microsomes (in vitro t1/2)
- Format: in vitro ADME
- details: rat liver microsomes 0.5 mg/mL, 2 μM compound; read-out: Rat microsome t1/2, min
Please respond with reported half-life at 2 µM for every item in the list.
Answers are plain numbers, in h.

| compound | measurement_name | result_unit | assay_value |
| --- | --- | --- | --- |
| CC(C)(OCc1cc(-c2cccc(OC3CC3)c2)n(Cc2ccccc2N2CCCC2)n1)C(=O)O [Example 202] | half-life at 2 µM | h | 0.183 |
| COc1cc(OC)cc(-c2cc(COC(C)(C)C(=O)O)nn2-c2ccccc2Cl)c1 [Example 179] | half-life at 2 µM | h | 5.3 |
| CCOc1cc(OCC)cc(-c2cc(COC(C)(C)C(=O)O)nn2-c2ccccc2Cl)c1 [Example 180] | half-life at 2 µM | h | 38.2 |
| CC[C@@](C)(OCc1cc(-c2cccc(OC)c2)n(Cc2ccccc2Cl)n1)C(=O)O [Example 121] | half-life at 2 µM | h | 1.43 |

Batch of 8 compounds: report half-life at 2 µM for each.
1. CC(C)(OCc1cc(-c2cccc(OC3CC3)c2)n(-c2ccccc2N2CCC2)n1)C(=O)O [Example 232]
2. CC[C@](C)(OCc1cc(-c2cccc(OC)c2)n(Cc2ccccc2Cl)n1)C(=O)O [Example 120]
3. CC(C)(OCc1cc(-c2cccc(OC3CC3)c2)n(-c2ccccc2N2CCCC2)n1)C(=O)O [Example 221]
4. CCCn1ncc2ccc(-c3cc(COC(C)(C)C(=O)O)nn3-c3ccccc3N3CCC3)cc21 [Example 246]
5. COc1cc(OC)cc(-c2cc(COC(C)(C)C(=O)O)nn2Cc2ccccc2Cl)c1 [Example 224]
6. Cc1ccccc1-n1nc(COC(C)(C)C(=O)O)cc1-c1cccc(OC2CCC2)c1 [Example 161]
7. CCOc1cccc(-n2nc(COC(C)(C)C(=O)O)cc2-c2cc(OC)cc(OC)c2)c1 [Example 243]
8. CC(C)(OCc1cc(-c2cccc(OC3CCC3)c2)n(-c2ccccc2Cl)n1)C(=O)O [Example 175]

Result:
1: 1.17; 2: 0.85; 3: 0.617; 4: 1.82; 5: 2.2; 6: 4.32; 7: 5.03; 8: 5.25

Batch of 4 compounds: report half-life at 2 µM for each.
1. CC(C)(OCc1cc(-c2cccc(OC3CC3)c2)n(-c2ccccc2Cl)n1)C(=O)O [Example 110]
2. CC(C)Cc1ncc(-c2cc(COC(C)(C)C(=O)O)nn2Cc2ccccc2Cl)o1 [Example 134]
3. Cn1ncc2cccc(-n3nc(COC(C)(C)C(=O)O)cc3-c3cccc(OC4CC4)c3)c21 [Example 191]
4. CC(C)(OCc1cc(-c2cccc(OCC3CCC3)c2)n(-c2ccccc2Cl)n1)C(=O)O [Example 178]

Result:
[9.15, 4.4, 9.27, 2.42]

* * *

- experimental_system: MCT1 (Homo sapiens (Human), UniProt P53985)
- Sequence (P53985 whole entry): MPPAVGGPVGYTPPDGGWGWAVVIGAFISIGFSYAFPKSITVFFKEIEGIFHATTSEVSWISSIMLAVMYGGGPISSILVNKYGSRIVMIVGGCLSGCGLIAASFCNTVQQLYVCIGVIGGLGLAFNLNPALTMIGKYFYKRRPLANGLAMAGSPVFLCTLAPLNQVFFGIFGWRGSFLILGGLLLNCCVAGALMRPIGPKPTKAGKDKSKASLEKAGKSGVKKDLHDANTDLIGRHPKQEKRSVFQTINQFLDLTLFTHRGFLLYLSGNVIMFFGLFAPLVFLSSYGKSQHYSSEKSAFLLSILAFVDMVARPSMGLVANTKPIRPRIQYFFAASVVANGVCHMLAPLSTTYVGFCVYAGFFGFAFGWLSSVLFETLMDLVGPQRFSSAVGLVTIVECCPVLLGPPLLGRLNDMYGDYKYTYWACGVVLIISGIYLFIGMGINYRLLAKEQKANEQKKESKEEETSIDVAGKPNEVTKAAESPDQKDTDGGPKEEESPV
- Sequence (P35613 140-385 partner): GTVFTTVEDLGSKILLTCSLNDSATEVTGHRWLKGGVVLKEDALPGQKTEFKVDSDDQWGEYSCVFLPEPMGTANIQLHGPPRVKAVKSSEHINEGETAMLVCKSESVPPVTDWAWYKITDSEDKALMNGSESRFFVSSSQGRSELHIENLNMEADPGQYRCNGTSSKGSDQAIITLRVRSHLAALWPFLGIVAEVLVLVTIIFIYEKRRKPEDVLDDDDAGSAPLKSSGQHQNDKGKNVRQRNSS
- protocol_summary: Assay 4: MCT1-mediated lactate transport in BT20 breast cancer cells
- Assay type: cell-based
- details: Table 27
Please respond with reported IC50 for every item in the list.

Before answering, review these 4 worked examples.
| compound | measurement_name | assay_value |
| --- | --- | --- |
| CCOc1cccc(-c2cc(COC(C)(C)C(=O)O)nn2Cc2ccccc2OCC)c1 | IC50 | 34000 nM |
| COc1cccc(-c2cc(COC(C)(C)C(=O)O)nn2CC(C)C)c1 | IC50 | > 100000 nM |
| CC(C)COc1cccc(-c2cc(COC(C)(C)C(=O)O)nn2Cc2ccc(N(C)C)cc2)c1 | IC50 | 9900 nM |
| CC[C@@](C)(OCc1cc(-c2cccc(OC)c2)n(Cc2ccccc2Cl)n1)C(=O)O [Example 121] | IC50 | 21000 nM |

Batch of 4 compounds: report IC50 for each.
1. CC(C)(OCc1cc(-c2ccccn2)n(-c2ccccc2Cl)n1)C(=O)O
2. CC(C)(OCc1cc(-c2cccc(OC3COC3)c2)n(-c2ccccc2Cl)n1)C(=O)O
3. CC(C)(OCc1cc(-c2cccc(OC3COC3)c2)n(-c2ccccc2F)n1)C(=O)O
4. Cn1ncc2cccc(Cn3nc(COC(C)(C)C(=O)O)cc3-c3cccc(OCC(C)(C)C)c3)c21

Result:
> 100000 nM
> 100000 nM
> 100000 nM
17000 nM

* * *

- protocol_summary: Pharmacokinetic assay in rat (IV 3 mg/kg, PO 10 mg/kg)
- Type: in vivo
- details: Male Sprague-Dawley rat, oral bioavailability, PO 10 mg/kg
Label true (1) when Rat F is at or above 50%; anything below gets false (0).

| structure | category |
| --- | --- |
| CC(C)(OCc1cc(-c2cccc(OC3CC3)c2)n(-c2ccccc2N2CCC2)n1)C(=O)O | true (1) |

Request: Identify whether the reported Rat F of the following molecule is 50% or greater: CCCn1ncc2ccc(-c3cc(CO[C@](C)(CC)C(=O)O)nn3-c3ccccc3N3CCC3)cc21
Result: true (1)

Request: Identify whether the reported Rat F of the following molecule is 50% or greater: CCn1ncc2ccc(-c3cc(CO[C@](C)(CC)C(=O)O)nn3Cc3ccccc3Cl)cc21
Result: false (0)

Request: Identify whether the reported Rat F of the following molecule is 50% or greater: CC(C)(OCc1cc(-c2cccc(OC3CC3)c2)n(-c2ccccc2Cl)n1)C(=O)O
Result: true (1)

* * *

Please respond with reported Vd for every item in the list.
- protocol_summary: Pharmacokinetic assay in rat (IV 3 mg/kg, PO 10 mg/kg)
- Format: in vivo
- details: plasma, Male Sprague-Dawley rat, volume of distribution, read-out: Rat Vss
- Procedure: The following are assays that may be used to evaluate the pharmacokinetic properties of Formula (I) in mouse or rat. The assays follow a common procedure recited below. 1. […] For PO (oral gavage), DMSO/PEG400 (10:90). Formulations freshly prepared on the day of dosing or prior to dosing. Storage at room temperature. 2. […] 7. Samples Analysis: Plasma samples were analyzed using LC/MS/MS method, and pharmacokinetic parameters (half-life: t1/2; oral bioavailability: F; volume of distribution: Vss).
Numbers only, in L/kg.

Before answering, review these 7 worked examples.
| compound | Vd / L/kg |
| --- | --- |
| CCn1ncc2ccc(-c3cc(COC(C)(C)C(=O)O)nn3Cc3ccccc3Cl)cc21 [Example 150] | 1.2 |
| Cn1ncc2cccc(-n3nc(COC(C)(C)C(=O)O)cc3-c3cccc(OCC(C)(C)C)c3)c21 [Example 167] | 1.2 |
| CCn1ncc2ccc(-c3cc(CO[C@](C)(CC)C(=O)O)nn3Cc3ccccc3Cl)cc21 [Example 220] | 0.68 |
| CC(C)(OCc1cc(-c2cccc(OC3CCC3)c2)n(-c2ccccc2N2CCC2)n1)C(=O)O [Example 260] | 0.2 |
| CCn1ncc2ccc(-c3cc(COC(C)(C)C(=O)O)nn3-c3ccccc3N3CCCC3)cc21 [Example 229] | 1 |
| CC[C@@](C)(OCc1cc(-c2cccc(OC3CC3)c2)n(-c2ccccc2N2CCC2)n1)C(=O)O [Example 266] | 0.23 |
| COc1cc(OC)cc(-c2cc(COC(C)(C)C(=O)O)nn2-c2ccccc2N2CCC2)c1 [Example 251] | 0.38 |

Okay, next one:
Request: Assign Vd to the following record: Cc1ccccc1-n1nc(COC(C)(C)C(=O)O)cc1-c1cccc(OC2CCC2)c1 [Example 161]
Result: 0.32
